Entry source: patent US9586959B2

- protocol.text: Metabolic stability in human microsome
- conditions: human microsome 1 mg/mL, 5 μM compound, 1 mM NADPH
result.type: Metabolic stability (CLh. int), Human (µL/min/mg)

[[record]]
compound = "CN1C[C@@H]2C[C@H]1CN2c1nc2ncc(Cl)cc2n2cnnc12 [Compound 78]"
unit_abbreviation = "µL/min/mg"
endpoint_result = 2360

[[record]]
compound = "CN1CCN(c2nc3ncc(C#N)cc3n3cnnc23)CC1 [Compound 13]"
unit_abbreviation = "µL/min/mg"
endpoint_result = 2710

[[record]]
compound = "CNC1CN(c2nc3ncc(OC)cc3n3cnnc23)C1 [Compound 58]"
unit_abbreviation = "µL/min/mg"
endpoint_result = 2800

[[record]]
compound = "Brc1cnc2nc(N3CCNCC3)c3nncn3c2c1 [Compound 16]"
unit_abbreviation = "µL/min/mg"
endpoint_result = 4080

[[record]]
compound = "CNC1CN(c2nc3ncc(I)cc3n3cnnc23)C1 [Compound 48]"
unit_abbreviation = "µL/min/mg"
endpoint_result = 400


[I] CNC1CN(c2nc3ncc(Cl)cc3n3nnnc23)C1 [Compound 93]
[II] N#Cc1cnc2nc(N3CCNCC3)c3nncn3c2c1 [Compound 26]
Challenge: Which record shows the lower Metabolic stability (CLh. int), Human: the first, I , or the second, II ? # answer = label of selected item
Response given: II

---

- protocol.text: Metabolic stability in human microsome
- conditions: human microsome 1 mg/mL, 5 μM compound, 1 mM NADPH
result.type: Metabolic stability (CLh. int), Human (µL/min/mg)

Solved cases (4 shown):
[[record]]
compound = "C#Cc1cnc2nc(N3CC(NC)C3)c3nncn3c2c1 [Compound 54]"
endpoint_result = 1160

[[record]]
compound = "CNC1CN(c2nc3ncc([N+](=O)[O-])cc3n3cnnc23)C1 [Compound 111]"
endpoint_result = 4200

[[record]]
compound = "CNC1CN(c2nc3ncc(OC(F)F)cc3n3cnnc23)C1 [Compound 59]"
endpoint_result = 1320

[[record]]
compound = "Cc1nc2c3cc(Cl)cnc3nc(N3CCNCC3)n2n1 [Compound 32]"
endpoint_result = 1030


[1] CNC1CN(c2nc3ncc(Cl)cc3n3cnnc23)C1 [Compound 18]
[2] Clc1cnc2nc(N3CCNCC3)n3nc(C4CC4)nc3c2c1 [Compound 39]
Challenge: Which record shows the lower Metabolic stability (CLh. int), Human: the first, 1 , or the second, 2 ? # answer = label of selected item
Response given: 2
(2: 2840 µL/min/mg, 1: 4200 µL/min/mg)
